- Tested System: FLK-1 receptor (Mus musculus, UniProt P35918)
- Construct: expressed in transfected cells; host or cells: NIH3T3C7#3 cells (FLK-1 infected NIH3T3)
- Sequence (P35918 20-1345): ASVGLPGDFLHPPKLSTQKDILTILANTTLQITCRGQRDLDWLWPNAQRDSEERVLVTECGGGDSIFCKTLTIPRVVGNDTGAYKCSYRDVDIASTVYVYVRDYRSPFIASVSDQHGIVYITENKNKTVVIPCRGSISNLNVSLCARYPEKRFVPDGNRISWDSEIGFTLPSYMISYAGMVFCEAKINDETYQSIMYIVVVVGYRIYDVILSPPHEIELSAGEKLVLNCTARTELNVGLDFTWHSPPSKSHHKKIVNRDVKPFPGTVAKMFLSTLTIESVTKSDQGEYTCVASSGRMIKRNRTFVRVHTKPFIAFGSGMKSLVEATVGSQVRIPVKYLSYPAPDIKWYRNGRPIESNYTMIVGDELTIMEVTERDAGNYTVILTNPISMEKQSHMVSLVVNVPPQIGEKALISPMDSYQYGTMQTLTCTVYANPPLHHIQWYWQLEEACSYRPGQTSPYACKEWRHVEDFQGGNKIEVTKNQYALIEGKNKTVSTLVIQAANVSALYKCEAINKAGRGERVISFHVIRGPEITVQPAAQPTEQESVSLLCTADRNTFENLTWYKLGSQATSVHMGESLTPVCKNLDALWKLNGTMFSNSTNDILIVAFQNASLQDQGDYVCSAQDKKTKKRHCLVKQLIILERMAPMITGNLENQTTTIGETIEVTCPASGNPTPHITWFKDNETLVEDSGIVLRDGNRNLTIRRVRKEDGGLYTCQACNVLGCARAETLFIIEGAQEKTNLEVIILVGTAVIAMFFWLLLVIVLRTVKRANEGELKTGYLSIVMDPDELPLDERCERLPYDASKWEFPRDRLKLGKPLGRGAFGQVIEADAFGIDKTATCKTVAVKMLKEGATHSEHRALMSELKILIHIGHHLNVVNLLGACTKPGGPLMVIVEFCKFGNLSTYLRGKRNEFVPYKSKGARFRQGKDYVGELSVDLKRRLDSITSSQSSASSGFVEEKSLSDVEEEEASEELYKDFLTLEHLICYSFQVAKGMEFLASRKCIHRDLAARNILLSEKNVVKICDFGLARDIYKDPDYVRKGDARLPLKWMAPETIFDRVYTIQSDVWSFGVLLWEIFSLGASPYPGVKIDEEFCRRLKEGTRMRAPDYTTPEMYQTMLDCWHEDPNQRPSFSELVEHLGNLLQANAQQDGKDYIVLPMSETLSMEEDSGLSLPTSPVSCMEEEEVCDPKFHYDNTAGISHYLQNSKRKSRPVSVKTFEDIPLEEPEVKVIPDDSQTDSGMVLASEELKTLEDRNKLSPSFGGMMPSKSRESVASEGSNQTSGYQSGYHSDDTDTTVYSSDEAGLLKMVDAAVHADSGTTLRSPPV
- Experimental Protocol: ELISA assay to measure kinase activity of FLK-1 receptor in FLK-1/NIH cells
- Format: cell-based, murine
- Condition Set: FLK-1R ELISA, VEGF-stimulated FLK-1/NIH cells; read-out: IC50
Parameter Measured: IC50 (nM)
// return numeric value only (unit: nM, not printed)

// returns reported IC50 for input CC(C)(C)c1cc(/C=C(\C#N)C(N)=S)cc(C(C)(C)C)c1O
800

----------
- Tested System: FLK-1 receptor (Mus musculus)
- Construct: expressed in transfected cells; host or cells: NIH3T3C7#3 cells (FLK-1 infected NIH3T3)
- Experimental Protocol: ELISA assay to measure kinase activity of FLK-1 receptor in FLK-1/NIH cells
- Type: cell-based, murine
pIC50: −log10 of the molar value.
Label MET when pIC50 is at or above 5; otherwise label NOT MET.

{"Compound": "CCCNc1nc2ccccc2nc1Cl", "Assigned Label": "NOT MET"}
{"Compound": "N#C/C(=C\\c1ccc2[nH]ccc2c1)C(=O)c1ccc(O)c(O)c1", "Assigned Label": "NOT MET"}
{"Compound": "Cc1ccc(Sc2ncnc3ccc(C)cc23)cc1", "Assigned Label": "NOT MET"}
{"Compound": "Cc1oncc1C(=O)Nc1ccc(C(F)(F)F)cc1 [Compound 40, leflunomide]", "Assigned Label": "NOT MET"}
{"Compound": "c1ccc(-c2cnc3cc4ccccc4cc3n2)cc1", "Assigned Label": "MET"}

Reported pIC50 at or above 5? N#CC(C#N)=NNc1cccc(Cl)c1
MET

What about this compound? Cc1cc2ncc(Nc3cccc(Cl)c3)nc2cc1C
NOT MET

What about this compound? CC(C)c1cc(/C=C(\C#N)C(=O)NCCCc2ccccc2)cc(C(C)C)c1O
MET
